- Measured On: human AHR protein (Homo sapiens, UniProt P35869)
- Sequence (P35869 11-848): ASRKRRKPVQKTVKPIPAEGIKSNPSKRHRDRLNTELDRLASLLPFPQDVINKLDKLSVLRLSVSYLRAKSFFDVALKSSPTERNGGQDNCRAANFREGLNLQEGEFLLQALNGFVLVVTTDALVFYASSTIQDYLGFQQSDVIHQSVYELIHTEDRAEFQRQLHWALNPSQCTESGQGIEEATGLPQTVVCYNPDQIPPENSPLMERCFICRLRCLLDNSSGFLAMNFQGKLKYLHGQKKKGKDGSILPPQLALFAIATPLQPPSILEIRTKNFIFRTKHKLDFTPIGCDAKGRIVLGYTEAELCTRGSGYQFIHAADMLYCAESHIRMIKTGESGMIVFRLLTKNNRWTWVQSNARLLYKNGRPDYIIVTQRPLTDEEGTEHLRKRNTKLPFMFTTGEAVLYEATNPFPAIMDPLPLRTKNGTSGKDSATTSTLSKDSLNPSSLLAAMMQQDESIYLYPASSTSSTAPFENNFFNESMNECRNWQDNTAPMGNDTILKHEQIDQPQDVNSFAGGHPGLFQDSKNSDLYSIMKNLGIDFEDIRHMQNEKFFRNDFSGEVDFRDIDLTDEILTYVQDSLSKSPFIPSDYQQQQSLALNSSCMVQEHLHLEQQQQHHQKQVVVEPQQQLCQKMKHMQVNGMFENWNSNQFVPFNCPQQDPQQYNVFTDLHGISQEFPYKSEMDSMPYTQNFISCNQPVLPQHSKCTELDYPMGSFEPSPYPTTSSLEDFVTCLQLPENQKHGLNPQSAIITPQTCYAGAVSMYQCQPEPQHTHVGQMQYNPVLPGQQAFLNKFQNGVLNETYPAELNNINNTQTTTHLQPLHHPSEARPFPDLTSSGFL
pKd: −log10 of the molar value.

# Compound, pKd
data = [
    ("Nc1ccccc1C(=O)CC(N)C(=O)O (centres unmarked) [Kyn, Kynurenine, reference compound]", 4.21),
]
